tested on: OVCAR-5 ovarian; experiment: NCI-60 one-dose screen, 48 h (100 = growth as untreated, 0 = no growth, -100 = all killed); settings: 10 µM unless noted
About 83,000 compounds went through this panel and 20% of them were active in at least one assay; those are over-represented in the sample as a whole. Calls of active or inactive are those of the source. Rule for the calls: active = growth percent below 10; inactive = the rest.
readout: growth

>  <molecule>
Fc1ccc(COc2ccc(Nc3ncnc4sc5c(c34)CCCC5)cc2)cc1

>  <readout>
growth

>  <measured_value>
112% (inactive)

$$$$
>  <molecule>
CCNC(=O)Oc1ccc(/C(=C(/C)Cc2ccc(OC)cc2)c2ccc(OCCN3CCCC3)cc2)cc1

>  <readout>
growth

>  <measured_value>
83.8% (inactive)

$$$$
>  <molecule>
CC12CCC(/C(=C/NNc3ccc([N+](=O)[O-])cc3[N+](=O)[O-])C1=O)C2(C)C (stereo not given)

>  <readout>
growth

>  <measured_value>
74.5% (inactive)

$$$$
>  <molecule>
Oc1c(CN2CCCC2)cc(COCc2ccccc2)c2cccnc12

>  <readout>
growth

>  <measured_value>
43.1% (inactive)

$$$$
>  <molecule>
COc1ccc(-c2ccc(-c3ccc(C(=N)N)cn3)s2)cc1

>  <readout>
growth

>  <measured_value>
92.5% (inactive)

$$$$
>  <molecule>
CCOC(=O)CSc1nc2sc3c(c2c(=O)n1-c1ccc([N+](=O)[O-])cc1)CCCCC3

>  <readout>
growth

>  <measured_value>
72.2% (inactive)

$$$$
>  <molecule>
CCCNc1nc2ccccc2c2c(=O)c3cccc(Cl)c3sc12

>  <readout>
growth

>  <measured_value>
96.5% (inactive)

$$$$
>  <molecule>
O=[N+]([O-])/C(=C\c1ccco1)c1ccccc1Cl

>  <readout>
growth

>  <measured_value>
75.4% (inactive)

$$$$
>  <molecule>
COc1cc(C(=O)/C=C/c2c(-c3cccs3)nc3ccccn23)cc(OC)c1OC

>  <readout>
growth

>  <measured_value>
18.4% (inactive)

$$$$
>  <molecule>
CCNCc1ccc(O)c2ncccc12

>  <readout>
growth

>  <measured_value>
64.7% (inactive)

$$$$

----------
system: SK-MEL-2 melanoma; assay: NCI-60 one-dose screen, 48 h; details: 10 µM unless noted
Compounds without any hit were thinned out: in the full panel of roughly 83,000, 20% have a hit. Activity calls are given as the source filed them. How the source made its calls: active means growth percent below 10; inactive means the rest.
Outcomes: 1 (active), 0 (inactive)

>  <compound>
COc1ccc(C2=NN(C(=O)c3cc(OC)c(OC)c(OC)c3)C(c3ccc(N(C)C)cc3)C2)cc1 (configuration not stated)

>  <target_entity>
SK-MEL-2 melanoma

>  <category>
0

$$$$
>  <compound>
Cc1ccc2[nH]c(=O)c3c(c2c1)OC(N)=C(C#N)C31C(=O)c2cccc3cccc1c23 (configuration not stated)

>  <target_entity>
SK-MEL-2 melanoma

>  <category>
0

$$$$
>  <compound>
CCOC(=O)NN1CC(O)=C(c2nc(-c3ccc(Br)cc3)cs2)C1=N

>  <target_entity>
SK-MEL-2 melanoma

>  <category>
0

$$$$
>  <compound>
C#CC#CC#CC#CC#CC#CC#CC#CC[C@H]1OC[C@H](COC(=O)O[C@@H](C(=O)O[C@H]2C[C@@]3(O)[C@@H](OC(=O)c4ccccc4)[C@@H]4[C@]5(OC(C)=O)CO[C@@H]5C[C@H](O)[C@@]4(C)C(=O)[C@H](OC(C)=O)C(=C2C)C3(C)C)[C@@H](NC(=O)c2ccccc2)c2ccccc2)O1

>  <target_entity>
SK-MEL-2 melanoma

>  <category>
0

$$$$
>  <compound>
Cc1cc(F)ccc1S(=O)(=O)Nc1cc(-c2c(O)ccc3ccccc23)c(O)c2ccccc12

>  <target_entity>
SK-MEL-2 melanoma

>  <category>
1

$$$$
>  <compound>
C#CCOc1ccc2ncnc(Nc3cccc(NC(=O)CCl)c3)c2c1

>  <target_entity>
SK-MEL-2 melanoma

>  <category>
0

$$$$
>  <compound>
CCOC(=O)/C=C/c1c(C)[nH]c(=O)[nH]c1=O

>  <target_entity>
SK-MEL-2 melanoma

>  <category>
0

$$$$
>  <compound>
CC[C@H](CC[C@@H](C)[C@H]1CC[C@H]2[C@@H]3CC[C@@H]4CC(=O)/C(=C\c5ccncc5)C[C@]4(C)[C@H]3CC[C@]12C)C(C)C

>  <target_entity>
SK-MEL-2 melanoma

>  <category>
0

$$$$
>  <compound>
COc1ccc2nc(Cl)c(/C=C/C(=O)c3ccc(NC(=O)CSc4nnc(-c5ccc(Cl)c(Cl)c5)n4-c4ccccc4)cc3)cc2c1

>  <target_entity>
SK-MEL-2 melanoma

>  <category>
0

$$$$
>  <compound>
Cn1ccnc1C(=O)/C=C/c1ccc(C(=O)Nc2ccc(F)cc2)cc1

>  <target_entity>
SK-MEL-2 melanoma

>  <category>
0

$$$$
>  <compound>
O=C(Nc1ccc(F)cc1)Nc1ccccc1CNc1nc(Nc2ccc(OCCN3CCCC3)cc2)ncc1Cl

>  <target_entity>
SK-MEL-2 melanoma

>  <category>
0

$$$$
>  <compound>
c1ccc(CNc2ccc3nc(CCC4CCCCC4)[nH]c3c2)cc1

>  <target_entity>
SK-MEL-2 melanoma

>  <category>
0

$$$$
>  <compound>
N/C(=N\c1nc2ccccc2s1)NC(=NC1CCCCC1)NC1CCCCC1

>  <target_entity>
SK-MEL-2 melanoma

>  <category>
0

$$$$
>  <compound>
CC/C(Cc1ccccc1)=C(\c1ccc(OCCN2CCCCCC2)cc1)c1ccc(OC(=O)NCc2ccccc2)cc1

>  <target_entity>
SK-MEL-2 melanoma

>  <category>
0

$$$$
>  <compound>
Cc1ccc(/C=C(\C#N)C(=O)Nc2ncc(Cc3cc(Cl)ccc3Cl)s2)o1

>  <target_entity>
SK-MEL-2 melanoma

>  <category>
0

$$$$
>  <compound>
C[Se]C(=O)CC1=C2C=C(F)C=CC2/C(=C\c2ccc(S(C)=O)cc2)C1C (configuration not stated)

>  <target_entity>
SK-MEL-2 melanoma

>  <category>
0

$$$$
>  <compound>
CCCCCCNc1nc(NCCCCCC)c2[nH]c(NCCCCCC)nc2n1

>  <target_entity>
SK-MEL-2 melanoma

>  <category>
0

$$$$

----------
Listed here are molecules together with their documented growth.
system: SK-MEL-2 melanoma; experiment: NCI-60 one-dose screen, 48 h (100 = growth as untreated, 0 = no growth, -100 = all killed); settings: 10 µM unless noted
The panel holds about 83,000 compounds, 20% with a hit somewhere; the sample as a whole holds those more often.

>  <molecule>
CC12CCC(/C(=C/NNc3ccc([N+](=O)[O-])cc3[N+](=O)[O-])C1=O)C2(C)C (stereo not given)

>  <growth (%)>
38.4

$$$$
>  <molecule>
COc1ccc(-c2nnc(SCC(=O)Nc3ccc(/C(C)=N\O)cc3)n2-c2ccccc2)cc1OC

>  <growth (%)>
57.6

$$$$
>  <molecule>
CCOC(=O)Cn1c(=O)c2c3ccccc3n(C)c2n2nnc(-c3ccccc3)c12

>  <growth (%)>
97.1

$$$$
>  <molecule>
c1ccc(CCc2ccccc2-c2cc(-c3ccccc3)on2)cc1

>  <growth (%)>
86.4

$$$$
>  <molecule>
CCOC(=O)c1c(C)nn(CC(O)c2ccccc2)c1NC(=O)Nc1cccc(F)c1 (stereo not given)

>  <growth (%)>
90.9

$$$$

----------
tested on: MCF7 breast; assay: NCI-60 one-dose screen, 48 h (100 = growth as untreated, 0 = no growth, -100 = all killed); conditions: 10 µM unless noted
This is part of a sample that, as a whole, favours compounds with a hit. Of some 83,000 tested, about 20% had one in any assay.
Friendly reminder: growth below 50% is 1.0, at or above is 0.0.

>  <compound>
O=C(CSc1nc2ccc([N+](=O)[O-])cc2[nH]1)Nc1cccc([N+](=O)[O-])c1

>  <category>
0.0

$$$$
>  <compound>
COc1ccccc1-n1c(-c2cc(O)ccc2C)cn2c3c(=O)[nH]c(=O)n(C)c3nc12

>  <category>
0.0

$$$$
>  <compound>
O=c1nc(Nc2nc3ccccc3s2)[nH]c(=O)c2ccccc12

>  <category>
0.0

$$$$
>  <compound>
Cc1ccc(-c2cc(C(=O)N3N=C(c4ccc(N)cc4)CC3c3ccc(Cl)cc3)c3ccccc3n2)cc1 (stereo not given)

>  <category>
1.0

$$$$
>  <compound>
CCCCCCCCn1ccc2cc(NC(=O)Cn3cc(CN4CCN(CC)CC4)nn3)ccc21

>  <category>
1.0

$$$$
>  <compound>
CC(C)=CC(=O)N[C@@H]1CC2CCC3C(CC[C@@]4(C)C3CC[C@@H]4C(C)N(C)C)[C@@]2(C)C[C@@H]1O (stereo not given in full)

>  <category>
1.0

$$$$
>  <compound>
COc1ccc(C2C(C#N)=C(N)Oc3c2sc2c(Br)cccc32)cc1 (stereo not given)

>  <category>
1.0

$$$$
>  <compound>
CCN(CCO)CC(C)Nc1ccc([N+](=O)[O-])c2sc3ccccc3c(=O)c12 (stereo not given)

>  <category>
1.0

$$$$
>  <compound>
N#CCC1=NC(c2cccs2)=Nc2ccccc2S1

>  <category>
0.0

$$$$
>  <compound>
C=CCN=C(N)SCCCCCCSC(N)=NCC=C

>  <category>
0.0

$$$$
